# Tested on: UACC-257 melanoma
# assay.procedure: NCI-60 one-dose screen, 48 h
# experimental.parameters: 10 µM unless noted
The panel holds about 83,000 compounds, 20% with a hit somewhere; the sample as a whole holds those more often. Calls of active or inactive are those of the source. How the source made its calls: active means growth percent below 10; inactive means the rest.
Outcome field: choose from y (active), n (inactive)

Query: Would you mind telling me which call this test gave CN(C)c1ccc(/C=C2\C=C(c3nc4ccccc4s3)OC2=O)cc1 ?
Response: n

Query: Dear colleague, could you share the recorded outcome for Cc1cc(=O)oc2cc(Oc3nc(Br)cn4c(Br)cnc34)ccc12 when you have a moment?
Response: n

Query: Tell me the recorded outcome of this test for COCCn1cc(-c2nc(-c3c[nH]c4ncccc34)cs2)c2ccccc21 .
Response: n

Query: Per the assay record, what outcome was assigned to O=C(NNc1nc2cc(F)ccc2n2c(CN3CCOCC3)ccc12)c1ccccc1 ?
Response: y

Query: I would be grateful if you could indicate the recorded call for CC(C)(C)CC(C)(C)Nc1c(-c2c(O)c3ccccc3oc2=O)nc2sc3ccccc3n12 .
Response: n

Query: // param item: C=CC(CC(c1ccccc1)(c1ccccc1)c1ccccc1)N(CC)CC (stereo not given) ; yields the recorded call
Response: n

----------
# System: HS 578T breast
# assay.procedure: NCI-60 one-dose screen, 48 h
# experimental.parameters: 10 µM unless noted
About 83,000 compounds went through this panel and 20% of them were active in at least one assay; those are over-represented in the sample as a whole. Active and inactive are the calls of the source. How the source made its calls: active means growth percent below 10; inactive means the rest.
Write down one outcome, taken from active, inactive

Cc1oc(-c2ccc(Cl)cc2)nc1C1=NN(C(=O)c2ccncc2)C(c2ccccc2)C1 (stereo not given): inactive
C=C(C)[C@@H]1CC[C@]2(C)[C@H](C=CC3=C4C[C@@](C)(CO)CC[C@]4(C)CC[C@]32C)[C@@]1(C)CCCN: active

Query: Hello, I am checking results. What call was entered for COC1C(O)CC(OC2CC(OC3CC(O[C@@H]4C(=O)c5c(cc6cc(OC7CC(OC8CC(O)C(O)C(C)O8)C(O)C(C)O7)c(C)c(O)c6c5O)CC4[C@H](OC)C(=O)O)OC(C)C3O)OC(C)C2O)OC1C (stereo not given in full) ?
Response: inactive

Query: Dear colleague, could you share the recorded outcome for Cn1cc(-c2nonc2-c2c[nH]c3ccccc23)c2cc(Br)ccc21 when you have a moment?
Response: inactive

Query: How was COc1cc([C@@H](CCO)C[C@H](C)c2ccc3ccccc3c2)cc(OC)c1OC classified in this test?
Response: inactive

----------
# Test system: SR leukemia
# assay.procedure: NCI-60 one-dose screen, 48 h (100 = growth as untreated, 0 = no growth, -100 = all killed)
# experimental.parameters: 10 µM unless noted
The panel holds about 83,000 compounds, 20% with a hit somewhere; the sample as a whole holds those more often.
endpoint.label: growth (%)
Response body: numeric value in %, unit text excluded.

CC1(C)N=C(N)N=C(N)N1c1ccc(S(=O)(=O)Nc2nccs2)cc1: 104
COC(=O)c1nc(-c2ccccc2)oc1S(=O)(=O)N1CCCC(C)C1 (centres undefined): 0.921
C=C(C)[C@@H]1CC[C@]2(C)[C@H](C=CC3=C4C[C@@](C)(CO)CC[C@]4(C)CC[C@]32C)[C@@]1(C)CCCN: -31.4
N#Cc1c(-c2ccccc2)nc2c(c(-c3ccccc3)nn2-c2ccccc2)c1-c1ccc(N2CCCCC2)cc1: 114
Cn1c2ccccc2c2c3c(c4c5cc(Br)ccc5n(C)c4c21)C(=O)N(O)C3=O: 18.6
COC(=O)[C@@]12CC=C(C)[C@]3(C[C@H](c4ccoc4)OC3=O)[C@H]1C=C[C@@H](O)[C@@]2(O)C(=O)OC: 89.2

The molecule identified as O=Nc1ccc(NC(=O)Nc2ccc([N+](=O)[O-])cc2)cc1 registered its growth at 81.1

For O=C1NC(=O)C(c2coc3cc(Br)ccc23)=C1c1c[nH]c2ccccc12 the molecule record lists growth as 19.9

Kindly note the recorded growth for COc1cc(N2C(=O)[C@H](Cl)C2c2ccc(SC)cc2)cc(OC)c1OC (some centres undefined) , which is 1.95
